Readings of Emax at 30 µM for the listed compounds
# tested-on: human mAChR M4 (Homo sapiens, UniProt P08173)
# Construct: expressed in transfected cells
# Sequence (P08173 whole entry): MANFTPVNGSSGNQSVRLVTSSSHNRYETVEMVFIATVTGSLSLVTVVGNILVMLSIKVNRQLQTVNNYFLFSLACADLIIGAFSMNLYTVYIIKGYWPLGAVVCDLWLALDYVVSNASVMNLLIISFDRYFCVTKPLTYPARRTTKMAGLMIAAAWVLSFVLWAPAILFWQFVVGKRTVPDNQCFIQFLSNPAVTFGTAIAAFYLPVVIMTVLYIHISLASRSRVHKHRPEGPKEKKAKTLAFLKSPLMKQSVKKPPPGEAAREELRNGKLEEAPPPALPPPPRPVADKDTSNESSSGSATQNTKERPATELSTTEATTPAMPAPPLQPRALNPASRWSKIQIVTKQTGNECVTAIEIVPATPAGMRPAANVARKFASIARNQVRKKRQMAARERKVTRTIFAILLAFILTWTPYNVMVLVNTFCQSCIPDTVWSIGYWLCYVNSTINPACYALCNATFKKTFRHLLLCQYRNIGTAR
# procedure-text: mAChR M4 cell-based functional assay (calcium mobilization, CHO-K1 hM4-Gqi5 cells)
# assay-setup: CHO-K1, % ACh maximum at 30 μM; human M4
Quick note: unit goes after the number.

Solved cases (2 shown):
compound="Cc1c(C(=O)NCc2cccnc2)nnc(N2CCc3ncccc3C2)c1C [compound 136]" result=88%
compound="Cc1cc(C(=O)NC23CC(F)(C2)C3)cnc1N1CCc2ncccc2C1 [compound 124]" result=78%

Q) Entry Cc1cc(F)ncc1-c1cnc2c(c1)CN(c1ncc(C#N)cc1C)CC2 [Example 436] has what Emax at 30 µM?
A) 98%

Q) Entry Cc1nc(Cl)c(C)c(N2CCc3ncc(Oc4cccc(F)c4)cc3C2)n1 [compound 203] has what Emax at 30 µM?
A) 86%

Q) Entry COc1nc(N2CCc3ncc(C(F)(F)F)cc3C2)c(C)cc1C#N [Example 371] has what Emax at 30 µM?
A) 75%

Q) Entry Cc1cc(C(=O)NC2(c3cccnc3)CC2)nnc1N1CCc2ncc(CC(F)(F)F)cc2C1 [Example 585] has what Emax at 30 µM?
A) 96%

Q) Entry Cc1ccc(-c2cnc3c(c2)CN(c2ncc(C#N)cc2C)CC3)cn1 [compound 187] has what Emax at 30 µM?
A) 108%

Q) Entry Cc1ncc(-c2cnc3c(c2)CN(c2ncc(C#N)cc2C)CC3)s1 [compound 185] has what Emax at 30 µM?
A) 101%

Q) Entry Cc1cc(C(=O)NCC(C)C)cnc1N1CCc2ncc(-c3cn(C)nc3C)cc2C1 [Example 460] has what Emax at 30 µM?
A) 71%

Q) Entry Cc1nc(Cl)c(C)c(N2CCc3ncc(Nc4c(F)cccc4F)cc3C2)n1 [compound 89] has what Emax at 30 µM?
A) 80%

Q) Entry Cc1cc(C#N)cnc1N1CCc2ncc(Nc3ccncc3F)cc2C1 [Example 599] has what Emax at 30 µM?
A) 96%

Q) Entry Cc1cc(F)ncc1-c1cnc2c(c1)CN(c1nccc(C#N)c1C)CC2 [Example 437] has what Emax at 30 µM?
A) 47%
